- experiment.summary: viability loss with induced miR-34 in A549 – imaging, A549 dox-inducible miR-34, nuclei and caspase counts, primary screen (AID 1347080)
- condition.description: A549 miR-34 inducible, Hoechst nuclei count, 48 h; measured here: total cells with miR-34 induction; stronger effect = lower value
Each item that follows carries a reported cell count.

In the examples that follow, each entry is paired with its recorded cell count.
O=C(O)CCCCCCCCCCCNC(=O)NC12CC3CC(CC(C3)C1)C2 | 5310
Cc1ccc(/C=C2\CNC/C(=C\c3ccc(C)cc3)C2=O)cc1 | 500
CCCCC[C@H](O)/C=C/[C@H]1C=CC(=O)[C@H]1C/C=C\CCCC(=O)O | 6170
CC1(COc2ccc3c(c2)ncn3-c2ccc3cccc(N4CCC(N)CC4)c3n2)COC1 | 1330

Prompt: For the compound `O=C(c1c(O)c2ccc(Cl)cc2[nH]c1=O)C1CC1` , give its reported cell count.
Completion: 8250

###

Each item that follows carries a reported fold change.
- experiment.summary: viability loss with induced miR-34 in A549 – imaging, A549 dox-inducible miR-34, nuclei and caspase counts, primary screen (AID 1347080)
- condition.description: A549 miR-34 inducible, Hoechst nuclei count, 48 h; measured here: relative caspase fold change +Dox/-Dox
Returns: the value as a bare number; no unit string appended.

In the examples that follow, each entry is paired with its recorded fold change.
N=C(CC(O)COc1ccccc1-c1ccccc1)N1CCCCC1 (stereo unspecified) | 0.891
CC(C)CCCCCCC/C=C\C(=O)O | 0.344
COC(=O)/C=C/c1cccc(N(Cc2ccc(-c3ccc(N(C)C)cc3)cc2)C(=O)C2CCCCC2)c1 | 1.8
OCCC/C=C/c1ccccc1 | 1.17
CC(N)(C(=O)O)c1ccc(-c2nn[nH]n2)cc1 (stereo unspecified) | 0.762

Prompt: For the compound `NC(=O)CCC/C=C\C[C@@H]1[C@@H](/C=C/[C@@H](O)CCc2ccccc2)[C@H](O)C[C@@H]1O` , give its reported fold change.
Completion: 1.58

Prompt: For the compound `Nc1cccc(-c2cc3c(Oc4cccc(O)c4)ncnc3[nH]2)c1` , give its reported fold change.
Completion: 0.507

Prompt: For the compound `CCCCCCCCCCCCCCCC(=O)NCCS(=O)(=O)O` , give its reported fold change.
Completion: 0.86

Prompt: For the compound `Cc1cc(C)c(S(=O)(=O)Nc2ccccc2C(F)(F)F)c(C)c1` , give its reported fold change.
Completion: 0.932

Prompt: For the compound OC1CCC(Nc2nc(-c3ccccc3)nc3[nH]ccc23)CC1 (stereo unspecified) , give its reported fold change.
Completion: 1.31

Prompt: For the compound `CCCCC[C@H](O)C/C=C1/C(=O)C[C@H](O)[C@@H]1C/C=C\CCCC(=O)O` , give its reported fold change.
Completion: 1.09

###

- experiment.summary: drug combination growth inhibition, ovarian cancer – cell-based, oncology-focused library, rucaparib conditional, profiling panel (AID 1508598)
- condition.description: patient-derived ovarian cancer cells, CellTiter-Glo viability, 144 h; at 0.00488 µM; OCI-C5x cells; without rucaparib; stronger effect = lower value
Each item that follows carries a reported viability.
Numeric only. Scale: %

In the examples that follow, each entry is paired with its recorded viability.
Cc1cnc(NC(=O)Nc2cc(Br)c(C)cc2OC[C@@H]2CNCCO2)cn1 | 121
NC(=O)c1ccc(I)c([N+](=O)[O-])c1 | 127
CN1CCCN(C(=O)c2cccc(-c3ccc(/C=C4/C(=O)Nc5ccc(Cl)cc54)o3)c2)CC1 | 104

Below: the item to evaluate.
Prompt: For the molecule `CCOc1cc(N2CCC(O)CC2)ccc1Nc1ncc2c(n1)N(C)c1ccccc1C(=O)N2C` , give its reported viability.
Completion: 112
